experimentalDetails: Blood concentration measurement test
Type: in vivo
conditionNotes: male, Crl:CD (Sprague-Dawley), rat, plasma, po, 10 mg/kg, Test Group 4: present drug oral 10 mg/kg, 1 hour
assayEndpoint: concentration at 1 hour (ng/mL)
Quick note: give the figure in ng/mL, leave out the unit.

// concentration at 1 hour lookup, compound = O=C(O)COc1cccc2c1CCC=C2CCO/N=C(\c1ccccc1)c1cccnc1 , result: 785

----------
experimentalDetails: Blood concentration measurement test
Format: in vivo
conditionNotes: male, Crl:CD (Sprague-Dawley), rat, plasma, sc, 10 mg/kg, Test Group 3: present drug s.c. 10 mg/kg, 12 hours
Method: Male Crl:CD (Sprague-Dawley) rats (SPF; Charles River Japan; 8-week-old) were subcutaneously administered the various preparations (microspheres) shown in Table 9 below at a dose of 5 mL/kg under non-fasting conditions. […] The blood thus obtained was centrifuged at 12,000 rpm for 2 minutes, and the supernatant was collected as plasma. Blood concentration measurements of the present drug in the resulting plasma were carried out by a LC/MS/MS method. […]
assayEndpoint: concentration at 12 hours (ng/mL)
Your answer should be a plain number; it is taken to be in ng/mL.

concentration at 12 hours recorded for this compound, O=C(O)COc1cccc2c1CCC=C2CCO/N=C(\c1ccccc1)c1cccnc1 [present drug] , is 204
